System: Vero E6 infected with SARS-CoV-2
method-summary: inhibition of SARS-CoV-2 cytopathic effect; higher = more antiviral protection, active = above 15
assay-conditions: 100 nM; 48 h
experimental-readout: inhibition of SARS-CoV-2 cytopathic effect

Consider the reported inhibition of SARS-CoV-2 cytopathic effect for these molecules:
{"molecule": "N#CCC(=O)NN [cyacetacide]", "obs-value": "6.23% (inactive)"}
{"molecule": "CC(C)Oc1ccc2c(=O)c3cc(C(=O)O)ccc3oc2c1", "obs-value": "-1.13% (inactive)"}
{"molecule": "N#C/C(=C\\c1ccc(O)c(O)c1)C(=O)NCc1ccccc1", "obs-value": "7.47% (inactive)"}
{"molecule": "COc1cc(OC2CCN(C)CC2)ccc1Nc1ncc2c(n1)n(C1CCCC1)c(=O)n2C", "obs-value": "-2.6% (inactive)"}

Could you now look at the following molecule, please?
Prompt: Supply inhibition of SARS-CoV-2 cytopathic effect value. Item: O=C(O)[C@H](O)[C@@H](O)[C@H](O[C@@H]1O[C@H](CO)[C@H](O)[C@H](O)[C@H]1O)[C@H](O)CO [maltobionic-acid]
Completion: -1.55% (inactive)

---

Tested on: Vero E6 infected with SARS-CoV-2
method-summary: SARS-CoV-2 infection rate relative to infected DMSO; higher = more infection, active = 60 or less
assay-conditions: 24 h
experimental-readout: SARS-CoV-2 infection rate (%)
Answers are plain numbers, in %.

Consider the reported SARS-CoV-2 infection rate for these compounds:
{"compound": "Clc1ccccc1C(c1ccccc1)(c1ccccc1)n1cccn1 (10 µM)", "assayed-target": "Vero E6 infected with SARS-CoV-2", "experimental-readout": "SARS-CoV-2 infection rate", "display-unit": "%", "obs-value": 100}
{"compound": "O=C(c1cc(S(=O)(=O)Nc2ccccc2F)c(F)cc1Cl)N1CCN2CCC[C@@H]2C1 (10 µM)", "assayed-target": "Vero E6 infected with SARS-CoV-2", "experimental-readout": "SARS-CoV-2 infection rate", "display-unit": "%", "obs-value": 104}
{"compound": "Cc1ccc(NC(=O)c2cccc(C(C)(C)C#N)c2)cc1Nc1ccc2ncn(C)c(=O)c2c1 (0.833333 µM)", "assayed-target": "Vero E6 infected with SARS-CoV-2", "experimental-readout": "SARS-CoV-2 infection rate", "display-unit": "%", "obs-value": 93.5}
{"compound": "CCc1cc(Cl)c(OC)c(C(=O)NC[C@@H]2CCCN2CC)c1O [eticlopride] (10 µM)", "assayed-target": "Vero E6 infected with SARS-CoV-2", "experimental-readout": "SARS-CoV-2 infection rate", "display-unit": "%", "obs-value": 63.5}
{"compound": "CCCCCCc1ccc(O)cc1O.Nc1c2ccccc2nc2ccccc12 [acrisorcin] (0.833333 µM)", "assayed-target": "Vero E6 infected with SARS-CoV-2", "experimental-readout": "SARS-CoV-2 infection rate", "display-unit": "%", "obs-value": 97}

I have 3 compounds here; please give me SARS-CoV-2 infection rate for each one.
1. O=C(O)[C@@H]1C[C@@H](C2CCCCC2)CN1C(=O)CP(=O)(O)CCCCc1ccccc1 [fosinoprilat] (10 µM)
2. COc1c(N2CCNC(C)C2)c(F)cc2c(=O)c(C(=O)O)cn(C3CC3)c12 (stereo not drawn) [gatifloxacin] (10 µM)
3. COc1cc(-c2cc(-c3cccc(O)c3)cnc2N)cc(OC)c1OC (10 µM)

Completion:
100
104
95

---

Tested on: Vero E6 infected with SARS-CoV-2
method-summary: inhibition of SARS-CoV-2 cytopathic effect; higher = more antiviral protection, active = above 15
assay-conditions: 100 nM; 48 h
Provide the recorded inhibition of SARS-CoV-2 cytopathic effect for the entries that follow.
Give bare numbers, in %.

{"compound": "O=[N+]([O-])c1cc(O)c(O)c([N+](=O)[O-])c1", "display-unit": "%", "obs-value": -3.12}
{"compound": "CC(=O)N[C@H]1[C@@H](O)[C@H](O)[C@@H](CO)O[C@@H]1O", "display-unit": "%", "obs-value": -0.61}
{"compound": "O=C(O)CCCCN(CCc1ccccc1OCc1ccc(CCc2ccccc2)cc1)Cc1ccc(C(=O)O)cc1", "display-unit": "%", "obs-value": 2.55}
{"compound": "NC(=O)CCCCn1ccc(/N=C(\\N)NCC(F)(F)F)n1", "display-unit": "%", "obs-value": -1.98}
{"compound": "Cc1nnc(C(C)C)n1C1C[C@H]2CC[C@@H](C1)N2CC[C@H](NC(=O)C1CCC(F)(F)CC1)c1ccccc1 (stereo in doubt)", "display-unit": "%", "obs-value": 1.77}
{"compound": "O=[N+]([O-])c1ccccc1S(=O)(=O)NCC1CCC(CNC[C@H]2CCc3ccccc3C2)CC1 (some centres undefined)", "display-unit": "%", "obs-value": -1.44}
{"compound": "O=c1c2ccccc2[se]n1-c1ccccc1 [ebselen]", "display-unit": "%", "obs-value": 2.73}
{"compound": "Cc1c[nH]c(=O)n(CCCN2CCN(c3ccccc3OCC(F)(F)F)CC2)c1=O", "display-unit": "%", "obs-value": -3.18}

Prompt: Give inhibition of SARS-CoV-2 cytopathic effect for this entry on Vero E6 infected with SARS-CoV-2: `O=C1CCCCCCCCCCCCCCO1`
Completion: 0.06

---

Tested on: Vero E6 infected with SARS-CoV-2
method-summary: morphology score (similarity to uninfected cells); higher = more like uninfected cells
assay-conditions: 24 h
Provide the recorded morphology score for the entries that follow.

Consider the reported morphology score for these compounds:
{"compound": "Cc1cccc(OCC(O)CNC(C)(C)C)c1C (stereo unspecified) [xibenolol] (10 µM)", "morphology score": 0.0955}
{"compound": "CC1(C)C(/C=C/C=C/C=C/C=C2\\N(CCCCS(=O)(=O)O)c3ccc4ccccc4c3C2(C)C)=[N+](CCCCS(=O)(=O)[O-])c2ccc3ccccc3c21 [indocyanine-green] (10 µM)", "morphology score": 0.0305}
{"compound": "O=C(Nc1ccccc1)N[C@H]1C[C@H](C(=O)O)Nc2cc(Cl)cc(Cl)c21 (10 µM)", "morphology score": -0.146}
{"compound": "CC(C)[C@]12O[C@H]1[C@@H]1O[C@]13[C@]1(O[C@H]1C[C@H]1C4=C(CC[C@@]13C)C(=O)OC4)[C@@H]2O [triptolide] (10 µM)", "morphology score": 0.381}
{"compound": "O=[N+]([O-])c1cn2c(n1)OC[C@@H](OCc1ccc(-c3ccc(OC(F)(F)F)cc3)nc1)C2 (10 µM)", "morphology score": -0.214}
{"compound": "C[C@]12N[C@H](Cc3ccccc31)c1ccccc12 [dizocilpine-(-)] (10 µM)", "morphology score": 0.247}
{"compound": "CON(C)C(=O)[C@H](O)[C@H](Cc1ccccc1)NC(=O)c1cc2cc(Cl)ccc2[nH]1 (10 µM)", "morphology score": 0.109}
{"compound": "O=C(/C=C/c1cccnc1)NCCCCC1CCN(C(=O)c2ccccc2)CC1 (0.833333 µM)", "morphology score": -0.0966}

I have 6 compounds here; please give me morphology score for each one.
1. CCC(=O)O[C@@H](O[P@@](=O)(CCCCc1ccccc1)CC(=O)N1C[C@H](C2CCCCC2)C[C@H]1C(=O)O)C(C)C [fosinopril] (10 µM)
2. CO[C@H]1CC=C2CCN3CCC4=C(CC(=O)OC4)[C@]23C1 (10 µM)
3. Cc1cc(=O)n(-c2ccccc2)n1C [phenazone] (10 µM)
4. COc1ccc(O)c(C(C)(C)C)c1.COc1ccc(O)cc1C(C)(C)C [butylated-hydroxyanisole] (10 µM)
5. Cc1ccc(C(=O)Nc2cccc(C(F)(F)F)c2)cc1Nc1nc(-c2cccnc2)nc2c1cnn2C (10 µM)
6. CCCCCC(C)N (stereo unspecified) [tuaminoheptane] (10 µM)

Completion:
-0.0286
0.059
-0.0495
-0.127
-0.0613
-0.092

I have 2 compounds here; please give me morphology score for each one.
1. COc1cc2c(cc1OC)[C@@H]1Cc3ccc(OC)c(OC)c3CN1CC2 [rotundine] (10 µM)
2. O=C1OC2(c3ccc(O)cc3Oc3cc(O)ccc32)c2ccccc21 [fluorescein] (10 µM)

Completion:
1. 0.0444
2. 0.0519

---

Provide the recorded inhibition of SARS-CoV-2 cytopathic effect for the entries that follow.
System: Vero E6 infected with SARS-CoV-2
method-summary: inhibition of SARS-CoV-2 cytopathic effect; higher = more antiviral protection, active = above 15
assay-conditions: 100 nM; 48 h
Answers are plain numbers, in %.

Consider the reported inhibition of SARS-CoV-2 cytopathic effect for these compounds:
{"compound": "COc1cccc(CN(C(=O)CC(C)(C)C)[C@H]2C[C@@H](C(=O)N3CCNCC3)N(Cc3ccc4c(c3)OCO4)C2)c1", "obs-value": 5.86}
{"compound": "Clc1ccc(COC(Cn2ccnc2)c2ccc(Cl)cc2Cl)c(Cl)c1 (stereo not given) [miconazole]", "obs-value": -0.38}

I have 3 compounds here; please give me inhibition of SARS-CoV-2 cytopathic effect for each one.
1. OCC(CO)N[C@H]1C[C@](O)(CO)[C@@H](O)[C@H](O)[C@H]1O [voglibose]
2. CCOC(=O)c1ncc2[nH]c3ccc(OCc4ccccc4)cc3c2c1COC
3. CCCOc1ccc2[nH]cc(C3=CCNCC3)c2n1

Completion:
1.72
0.32
-1.41

Reference source: the supplement of paper PMC13380429
